assay: NFkB reporter suppression in cystic fibrosis bronchial cells – cell-based, uHTS hits, panel, cytotoxicity readout, dose response (AID 624344); settings: CF bronchial epithelial cells, PAF-induced NFkB reporter inhibition; with PAF, mean of runs
Calls of active or inactive are those of the source. How the calls were made is not given here.
Thanks in advance; please answer with one of these: Y = active, N = inactive

{"Compound": "Nc1ncc([N+](=O)[O-])c(N2CCCCCC2)n1", "Label Value": "Y"}
{"Compound": "CCOC(=O)[C@@H]1[C@H]2COc3ccc(Br)cc3[C@H]2N2C(=O)N(c3ccc(C)cc3)C(=O)[C@]12C", "Label Value": "N"}
{"Compound": "COc1cccc(NC(=O)Nc2nnc(CC(=O)Nc3ccccc3)s2)c1", "Label Value": "Y"}
{"Compound": "Cc1ccc(NS(=O)(=O)c2ccc(-c3cnc(C4CC4)o3)cc2)c(C)c1", "Label Value": "Y"}
{"Compound": "C=CCn1c(Oc2ccccc2F)nc2c1c(=O)n(C)c(=O)n2C", "Label Value": "Y"}
{"Compound": "CC(C)=CCc1c(O)cc(O)c2c1OC(c1ccc(O)cc1)CC2=O (stereo unspecified)", "Label Value": "Y"}
{"Compound": "Nc1nc(N)nc(-c2cc([N+](=O)[O-])ccc2O)n1", "Label Value": "Y"}
{"Compound": "O=C1NC(=S)N/C1=C/c1cccnc1", "Label Value": "Y"}

Challenge: For this compound, state the assay outcome: Cc1nn(-c2ccccc2)c(N2CCCC2)c1/C=N/NC(=O)c1cc(-c2ccccc2)nc2ccccc12
Response given: Y

Challenge: For this compound, state the assay outcome: O=C1OC(c2ccccc2)(c2cc(Br)ccc2O)c2ccccc21 (stereo unspecified)
Response given: Y
